System: HOP-92 NSCLC
Experiment notes: NCI-60 one-dose screen, 48 h (100 = growth as untreated, 0 = no growth, -100 = all killed)
Condition label: 10 µM unless noted
This is part of a sample that, as a whole, favours compounds with a hit. Of some 83,000 tested, about 20% had one in any assay.
Consider the following compounds and their measured growth readings.
Experimental readout: growth (%)

| Compound | Val |
| --- | --- |
| Clc1cnc(Nc2ccc(OCCN3CCCC3)cc2)nc1NCc1ccco1 | 5.42 |
| N#Cc1c(N)nc2c(nnn2-c2cccc(C(F)(F)F)c2)c1N | 77.6 |
| CCc1c(C(=O)N[C@@H]2c3cc(Cl)ccc3CC[C@@H]2O)[nH]c(C)c1C(C)=O | 84.1 |
| O=C(NCCOCCOCCNc1cccc2c1C(=O)N(C1CCCNC1=O)C2=O)c1cc2c(o1)C(=O)c1ccccc1C2=O (configuration not stated) | 22.2 |
| COc1ccc(C2CC(c3ccccc3)=NN2c2nc(C)c(C(C)=O)s2)cc1 (configuration not stated) | 95.4 |
| C[C@@H](C[C@H](CCOCc1cccnc1)c1ccccc1)c1cc2ccccc2o1 | 84.9 |
| CNC=O | 92 |
| c1ccc2[nH]c(SSc3nc4ncncc4[nH]3)nc2c1 | 27.5 |
| C=C1C(=O)O[C@H]2[C@H]1CC/C(COC(=O)/C=C\C(=O)NCc1ccc(Cn3c(=O)sn(-c4ccc(Cl)cc4)c3=O)cc1)=C\CC[C@@]1(C)O[C@@H]21 | -66.7 |
| N#Cc1c(NC(=O)c2ccc(Br)cc2)sc2c1CCCC2 | 81.5 |
| O=C1c2cccc3c(-c4ccc(-c5nc6c7ccccc7c7ccccc7c6[nH]5)cc4)ccc(c23)C(=O)N1CCN1CCNCC1 | 86.2 |
| Nc1nc(Nc2ccc(Cl)cc2)nn1S(=O)(=O)c1ccc(-c2ccc(F)cc2)cc1 | 75.7 |
| COc1ccc(-n2nnc(C(=O)NCCc3c[nH]c4ccc(F)cc34)c2C)cc1 | 87.6 |
| Cn1ccc(Cc2cnc(N)s2)n1 | 98.1 |
| O=C1N/C(=N/O)S/C1=C/c1cn(-c2ccccc2)nc1-c1ccccc1 | 107 |
| NC(=S)N/N=C/C(=O)O | 81.8 |
| COc1ccc(C2CC(c3cnccn3)=NN2)cc1OC (configuration not stated) | 68.3 |
| CCNCCNc1cc(-c2ccc(F)cc2)c(C#N)c2nc3ccccc3n12 | 52.1 |
| Cn1ccnc1C(=O)/C=C/c1ccc(C(=O)Nc2ccc(S(F)(F)(F)(F)F)cc2)cc1 | 95.8 |
| COc1cc2oc(-c3cccc(C(=O)Nc4ccc(C)cc4)c3)cc(=O)c2c(OC)c1OC | 22 |
| N=C(N)c1ccc(-c2ccc(-c3ccc(Cl)cc3Cl)o2)cc1 | 45.3 |
| COc1ccccc1C(=O)NC(=S)Nc1ccc(-c2nc3ccccc3[nH]2)cc1 | 101 |

====

System: LOX IMVI melanoma
Experiment notes: NCI-60 one-dose screen, 48 h
Condition label: 10 µM unless noted
The panel holds about 83,000 compounds, 20% with a hit somewhere; the sample as a whole holds those more often. Activity calls are given as the source filed them. How the source made its calls: active means growth percent below 10; inactive means the rest.
Outcome codes: active, inactive

| Molecule | Label value |
| --- | --- |
| CS(=O)(=O)c1ccc(-c2[nH]c3ccc(F)cc3c2/C=N/NC(N)=S)cc1 | inactive |
| O=c1[nH]c(=O)n(C2CC(O)C(CO)O2)cc1CO (configuration not stated) | inactive |
| O=C(O)c1ccc(CO)o1 | inactive |
| COc1ccc(/C=N/NC(=O)Cn2c(-c3ccc(S(C)(=O)=O)cc3)nc3cc(Cl)ccc32)cc1 | inactive |
| O=C(NC1CCOCC1)c1ccc2c(c1)CN(c1ncc(Cc3cccc(-n4cccn4)c3)s1)CC2 | inactive |
| CCN1CCN(c2ccc(Nc3cc(-c4cccnc4Nc4c(Cl)c(OC)cc(OC)c4Cl)ncn3)cc2)CC1 | inactive |
| N#Cc1c(N)nc2c(nnn2-c2cccc(C(F)(F)F)c2)c1N | inactive |
| CN(C)c1ccc2cc(-c3ccc(Cl)c(Cl)c3)c(N)nc2c1 | inactive |
| CN(C)CN1CCN(c2ccc3nc(-c4ccc5nc(-c6ccc(C(F)(F)F)cc6)[nH]c5c4)[nH]c3c2)CC1 | inactive |
| CCN(CC)CCNc1ccc(C)c2sc3cc(C)ccc3c(=O)c12 | inactive |
| O=C(NCc1cn(Cc2cccc(Oc3ccccc3)c2)nn1)c1cccnc1NCc1ccc(Cl)cc1 | inactive |
| CCN(CC)CCOc1ccc(/C(=C(\C)c2ccc(F)c(OC)c2)c2ccc(Cl)cc2)cc1 | active |
| NS(=O)(=O)Oc1ccc(NC(=O)C23CC4CC(CC(C4)C2)C3)cc1Cl | inactive |
| Cc1cc(-c2ccc(N(C)C)cc2)c2sc(=O)[nH]c2n1 | inactive |
| Nc1ccc(CCCCc2ccccc2)c(Cl)c1 | inactive |
| Cc1cc(=O)c2cc3nc(-c4cccnc4)oc3c(Br)c2o1 | inactive |
| NC(N)=N/N=C/c1ccc(Br)cc1 | inactive |
| CCCCC1COc2cccc3c(SCC(=O)N(C)c4cccc(Cl)c4)cc[n+]1c23 (configuration not stated) | inactive |
| O=C1N(c2ccccc2)C(=S)N[C@]12[C@H](c1ccccc1)C1CCCN1[C@]21C(=O)NC2C=CC(Cl)=C[C@H]21 (some centres not stated) | inactive |
| CN(C)c1cnccn1 | inactive |
| COc1cc(C2CC(=O)Nc3n[nH]c(-c4ccccc4)c32)cc(OC)c1OC (configuration not stated) | inactive |
| O=S(=O)(NCCNc1cc(-c2c(-c3cccc(O)c3)nc3sccn23)ccn1)c1ccc(Cl)cc1 | inactive |
